All values here come from PubChem BioAssay AID1347075.

Experiment: qHTS assay for MDR1-selective chemotherapeutics: Primary screen using the parental adenocarcinoma cell KB-3-1; note: nearly all actives have a fitted effect of over 60% in size
Conditions: KB-3-1 viability, CellTiter-Glo ATP luminescence, 72 h; series mostly up to 46.1 µM
Text: A prime difficulty in effectively treating cancer is the development of cellular resistance to multiple structurally unrelated anticancer drugs, a phenomenon known as multidrug resistance (MDR). […] Numerous strategies to overcome P-gp-mediated MDR have been explored, including the design of drugs that evade recognition and efflux, and development of inhibitors to block efflux and restore drug accumulation. […]
Out of some 400,000 compounds screened, about 5,500 (1.4%) were called active. About 9% were inconclusive and are not listed. Calls come from the whole dose curve; as a rule, active = well fitted cell-killing curve with a large enough effect; inconclusive = small, poorly fitted or top-dose-only effect, or effect the other way; inactive = flat fitted curve, though single readings scatter. Shown is part of a subset that was picked to be rich in actives.
I would appreciate it if you answered using one of these outcomes: True (active), False (inactive)

Previously resolved entries follow.
1. Cc1cc(Cl)ccc1NC(=S)N1CCC(C(N)=O)(N2CCCCC2)CC1 = False
2. O=C(NCc1ccccc1Cl)c1cccn1-c1nnc(N2CCCCC2)s1 = False
3. O=[N+]([O-])c1ccccc1S(=O)(=O)Nc1cccc2cccnc12 = False

stdin: What call does the record list for COc1ccc(Cl)cc1NC(=O)CSc1nc2ccccc2c2nc(-c3ccccc3)nn12 ?
stdout: False

stdin: Lab log entry: COc1ccc(NC(=O)CSc2nnc(-c3nnn(-c4ccc(F)cc4)c3C)o2)cc1 — outcome as called in the assay?
stdout: False

stdin: Record lookup: outcome of this test for Cc1cc(C)nc(N/N=C/c2c(CO)cnc(C)c2O)n1 ?
stdout: False

stdin: How was CCN(CCCNC(=O)c1c(C)oc2ncn(CC(C)C)c(=O)c12)Cc1ccccc1 classified in this test?
stdout: False

stdin: Which result was noted for this compound in the test: CC(=O)c1c(C)[nH]c(C(=O)COc2ccc3c(C)cc(=O)oc3c2)c1C
stdout: True

stdin: Which outcome was entered for the compound Cc1ccc(-c2cc(=O)c3ccc(F)cc3[nH]2)cc1 in this test?
stdout: False

stdin: For O=C(NC1CCN(C(=S)Nc2ccc(Cl)cc2)CC1)C1CCCCC1 , which call appears in the assay record?
stdout: False

stdin: Each compound tested received a call. Report the one for Cc1ccccc1C(=O)Nc1sc2c(c1C(=O)N1CCC(C)CC1)CCCC2 .
stdout: False

stdin: # fetch the recorded call for CCOC(=O)c1ccc(NC(=O)Cn2c(=O)cc(C)c3c(C)nn(-c4cccc(F)c4)c32)cc1 here
stdout: False

stdin: Status in this test for Cc1ccc(OCC(=O)Nc2ccc3oc(=O)ccc3c2)cc1C ?
stdout: False

stdin: # lookup: test call for Cc1cc(=O)oc2cc(OC(C)C(=O)NCCc3ccc(S(N)(=O)=O)cc3)ccc12 (configuration not stated)
stdout: False

stdin: # outcome recorded in this test, key = NC(=O)C1(N2CCCCC2)CCN(C(=S)Nc2ccc(Cl)cc2)CC1
stdout: True

stdin: What did this assay record as the result for COc1ccc(CNC(=O)CSCc2nc(-c3ccccc3F)oc2C)cc1 ?
stdout: False

stdin: Answer briefly: the call reported for O=c1cc(-c2ccccc2)[nH]c2cc(F)ccc12 in this assay.
stdout: True

stdin: I'd appreciate the recorded outcome for CCOC(=O)c1c(C)oc2nc(C)nc(Nc3ccc(CC)cc3)c12 from this test.
stdout: False

---

Experiment: qHTS assay for MDR1-selective chemotherapeutics: Primary screen using the parental adenocarcinoma cell KB-3-1; note: nearly all actives have a fitted effect of over 60% in size
Conditions: KB-3-1 viability, CellTiter-Glo ATP luminescence, 72 h; series mostly up to 46.1 µM
In all, about 400,000 compounds went through this assay and about 5,500 (1.4%) were called active. Inconclusive results (about 9%) are left out. Calls come from the whole dose curve; as a rule, active = well fitted cell-killing curve with a large enough effect; inconclusive = small, poorly fitted or top-dose-only effect, or effect the other way; inactive = flat fitted curve, though single readings scatter. The list comes from a sample in which actives are over-represented; it also holds close analogues and randomly drawn compounds.
// classify into class 1 = active, class 0 = inactive

Known results for molecules:
1) COc1ccc(Cn2c(=O)sc3ccccc32)cc1OC = class 1
2) NS(=O)(=O)c1ccc(NC(=O)COc2ccc(S(=O)(=O)NC3CCCCC3)cc2)cc1 = class 0
3) NC(=O)CSc1nc2c(oc3ccccc32)c(=O)n1Cc1ccccc1 = class 0
4) COc1ccc(S(=O)(=O)NCC(c2ccc(N(C)C)cc2)N2CCc3ccccc32)cc1OC (stereo unspecified) = class 0

stdin: Recorded call for COc1ccc(CC(=O)N2CC(=O)Nc3ccc(Br)cc3C2c2ccc(F)cc2)cc1OC (stereo unspecified) ?
stdout: class 0

stdin: What was the test verdict on CC(NC(=O)CNC(=O)Cc1cccc2ccccc12)c1ccc(S(N)(=O)=O)cc1 (stereo unspecified) ?
stdout: class 0

stdin: Please state the recorded outcome for this molecule: CC(=O)N1c2ccc(S(=O)(=O)N3CCCCCC3)cc2CC1C(=O)NCc1ccccc1C (stereo unspecified)
stdout: class 0

stdin: Each molecule tested received a call. Report the one for O=C1CCCN1C(=O)COc1ccc([N+](=O)[O-])cc1 .
stdout: class 0

stdin: What outcome does the record of this test show for CC(=O)c1sc(N2C(=O)c3oc4ccccc4c(=O)c3C2c2ccc(C)cc2)nc1C (stereo unspecified) ?
stdout: class 0

stdin: For Cn1c(=O)c2c(nc(NCCc3ccccc3)n2Cc2ccccc2Br)n(C)c1=O , what call appears in the results of this test?
stdout: class 0

stdin: # fetch the recorded call for Cc1ccc(C)c(S(=O)(=O)n2nc(C)c(S(=O)(=O)N3CCC(C)CC3)c2C)c1 here
stdout: class 0

stdin: For this molecule, state the assay outcome: Cc1ccccc1-c1nc2cc(NC(=O)c3cccc(OCCC(C)C)c3)ccc2o1
stdout: class 0

stdin: Tell me the recorded outcome of this test for CCc1ccc(NC(=O)c2cnc3c(-c4ccccc4)c(C)nn3c2C)cc1 .
stdout: class 0

stdin: Hi, do you know how CNC(=O)C(NC(=O)c1ccccc1)=C(C)C came out in this test?
stdout: class 0

stdin: Give the logged outcome of this assay for the following molecule: CC(C)(O)c1ccccc1CC[C@H](SCC1(CC(=O)O)CC1)c1cccc(/C=C/c2ccc3ccc(Cl)cc3n2)c1
stdout: class 0

stdin: Fill in: this test's call for O=[N+]([O-])c1ccc(/C=C/c2ccc3cccnc3c2)cc1 is ___
stdout: class 0

stdin: How did this test come out for COc1ccccc1CNC(=O)CCn1c(=O)sc2ccccc21 ?
stdout: class 0

stdin: Returns: the outcome recorded for O=C1/C(=C\c2ccc([N+](=O)[O-])cc2)CS(=O)(=O)C/C1=C/c1ccc([N+](=O)[O-])cc1 in this assay.
stdout: class 1

---

Assay: qHTS assay for MDR1-selective chemotherapeutics: Primary screen using the parental adenocarcinoma cell KB-3-1; note: nearly all actives have a fitted effect of over 60% in size
Conditions: KB-3-1 viability, CellTiter-Glo ATP luminescence, 72 h; series mostly up to 46.1 µM
Screen size: about 400,000 compounds; about 5,500 (1.4%) were called active. Inconclusive results (about 9%) are left out. Calls come from the whole dose curve; as a rule, active = well fitted cell-killing curve with a large enough effect; inconclusive = small, poorly fitted or top-dose-only effect, or effect the other way; inactive = flat fitted curve, though single readings scatter. This is one part of a sample in which actives are shown more often than they occur.
Valid outcomes are listed here; reply with one: 1 = active, -1 = inactive

1) COc1ccccc1N1CCN(C(=O)c2cc(=O)c3cc(C)ccc3o2)CC1 = 1
2) COc1ccccc1N1CCN(C(=O)c2cc(=O)c3cc(C)cc(C)c3o2)CC1 = 1
3) Cc1cc(C(=O)Nc2cccc(C(F)(F)F)c2)c2c(C)nn(-c3cccc(F)c3)c2n1 = 1
4) COc1ccc(Nc2ncc(C(=O)N3CCN(c4ccccc4OC)CC3)c3ccccc23)cc1 = -1
5) COc1cc2c(cc1OC)CN(C(=O)c1cc(S(=O)(=O)N3CCCCC3)ccc1Cl)CC2 = -1
6) COc1ccccc1N1CCN(C(=O)c2ccc(NC3=NC4CS(=O)(=O)CC4S3)cc2)CC1 (stereo not given) = -1
7) COc1cc(Cl)ccc1Nc1ncc(C(=O)N2CCN(c3ccccc3OC)CC2)c2ccccc12 = -1
8) COc1cc2c(cc1OC)CN(C(=O)c1cc(=O)c3ccccc3o1)CC2 = 1
9) Cc1ccc2nc(COc3cccc(NC(=O)c4ccccc4Cl)c3)cc(=O)n2c1 = -1

Please find the next compound below.
stdin: Any idea what this test logged for COc1cc(CCC(=O)N2CCN(c3ccccc3Cl)CC2)cc(OC)c1OC ?
stdout: -1

---

Assay: qHTS assay for MDR1-selective chemotherapeutics: Primary screen using the parental adenocarcinoma cell KB-3-1; note: nearly all actives have a fitted effect of over 60% in size
Settings: KB-3-1 viability, CellTiter-Glo ATP luminescence, 72 h; series mostly up to 46.1 µM
Text: A prime difficulty in effectively treating cancer is the development of cellular resistance to multiple structurally unrelated anticancer drugs, a phenomenon known as multidrug resistance (MDR). […] Numerous strategies to overcome P-gp-mediated MDR have been explored, including the design of drugs that evade recognition and efflux, and development of inhibitors to block efflux and restore drug accumulation. […]
Screen size: about 400,000 compounds; about 5,500 (1.4%) were called active. Not shown: some 9% with an inconclusive outcome. The call rests on the fitted dose curve; in most records, active means well fitted cell-killing curve with a large enough effect; inconclusive means small, poorly fitted or top-dose-only effect, or effect the other way; inactive means flat fitted curve, though single readings scatter. What follows is part of a selection rich in actives, with near analogues and random picks from the rest.
Hi there, use one of these labels in your reply, thanks! active, inactive

See these solved cases before continuing.
1) Cc1csc(NCC(=O)c2c[nH]c3ccccc23)n1 = inactive
2) O=C(OCC(=O)N1CCN(C(=O)c2ccco2)CC1)c1cccc(O)c1 = inactive
3) COc1ccc2cc(CNc3ccc(OC)c(OC)c3)c(=O)n(CC(=O)Nc3ccccc3F)c2c1 = inactive

stdin: Test call for this molecule, please: CC1CCCCC1NC(=O)/C(C#N)=C/C=C/c1ccccc1[N+](=O)[O-] (stereo unspecified)
stdout: active

stdin: Please let me know the test result on file for CC1CC(C)CN(C/C=C/c2ccccc2[N+](=O)[O-])C1 (stereo unspecified) .
stdout: inactive

stdin: Hey, what did the test say about COc1cccc(NC(=O)C2CCN(c3cc(C)nc4c(-c5ccc(Cl)cc5)c(C)nn34)CC2)c1 ?
stdout: inactive

stdin: Tell me the recorded outcome of this test for Cc1ccc(C=O)cc1Cl .
stdout: inactive

stdin: What is the recorded call for this molecule in the test? N#Cc1ccc[n+](CC(=O)c2ccc(F)cc2)c1
stdout: inactive

stdin: Check the results log: what was the call for CCOC(=O)c1cc2c(=O)n3ccccc3nc2n(Cc2ccco2)c1=NC(=O)c1ccc(F)cc1 ?
stdout: inactive

stdin: Identify the outcome logged in this assay for the molecule shown: Cc1ccc(CNC(=O)c2c(O)nc3c(C)cccn3c2=O)cc1
stdout: inactive

stdin: How did this test come out for CCCNC(=O)C1CCC(Cn2c(=O)c3sccc3n(Cc3ccccc3F)c2=O)CC1 (stereo unspecified) ?
stdout: inactive
